Sourced from patent US20040121947A1

# target: T1, memapsin 2 (Homo sapiens, UniProt P56817)
# T1 construct: pET-11 vector-derived residues 1-15 of promemapsin 2-T1 (N, cleaved yes); made in house; host or cells: E. coli
# T1 sequence (P56817 41-454 limits assumed): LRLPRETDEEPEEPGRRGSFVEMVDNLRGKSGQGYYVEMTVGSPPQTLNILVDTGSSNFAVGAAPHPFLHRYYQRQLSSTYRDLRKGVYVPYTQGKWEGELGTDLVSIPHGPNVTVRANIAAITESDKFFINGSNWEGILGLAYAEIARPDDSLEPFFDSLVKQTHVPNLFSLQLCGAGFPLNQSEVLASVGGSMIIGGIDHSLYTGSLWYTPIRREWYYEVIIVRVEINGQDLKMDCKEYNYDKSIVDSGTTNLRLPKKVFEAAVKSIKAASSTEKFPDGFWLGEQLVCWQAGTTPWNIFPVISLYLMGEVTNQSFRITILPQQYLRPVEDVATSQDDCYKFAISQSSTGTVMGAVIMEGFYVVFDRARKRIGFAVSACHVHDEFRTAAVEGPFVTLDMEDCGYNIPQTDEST
# procedure.text: Inhibition of memapsin 2 proteolytic activity, fluorogenic substrate FS-2
# Assay type: biochemical
# experimental.context: enzyme concentration equals the compound concentration
recorded.endpoint: % Inhibition Mep2 (%)

Before answering, review these 4 worked examples.
CSCC[C@H](NC(=O)OCn1nc(C)cc1C)C(=O)N[C@@H](CC(C)C)[C@@H](O)C[C@@H](C)C(=O)N[C@H](C(=O)NCC(C)C)C(C)C [MMI-156]
68
CCCCNC(=O)[C@@H](NC(=O)[C@H](C)C[C@H](O)[C@H](CC(C)C)NC(=O)[C@H](CCSC)NC(=O)OCn1nc(C)cc1C)C(C)C [MMI-167]
44
CSCC[C@H](NC(=O)OCCn1nc(C)cc1C)C(=O)N[C@@H](CC(C)C)[C@@H](O)C[C@@H](C)C(=O)N[C@@H](CC(C)C)C(=O)NCC(C)C [MMI-176]
47
CSCC[C@H](NC(=O)OCn1nc(C)cc1C)C(=O)N[C@@H](CC(C)C)[C@@H](O)C[C@]1(C)CCN([C@@H](CC(C)C)C(=O)NCC(C)C)C1=O [MMI-181]
47

I: CSCC[C@H](NC(=O)OCn1nc(C)cc1C)C(=O)N[C@@H](CC(C)C)[C@@H](O)C[C@@H](C)C(=O)N[C@H](C(=O)NC(C)C)C(C)C [MMI-165]
II: CCCCNC(=O)[C@H](C(C)C)N1CC[C@@](C)(C[C@H](O)[C@H](CC(C)C)NC(=O)[C@H](CCSC)NC(=O)OCn2nc(C)cc2C)C1=O [MMI-182]
Return label of the item with the larger % Inhibition Mep2. Candidates: I , II . Selection: enter the item's label.
I

----------
# target: T1, memapsin 1 (Homo sapiens, UniProt Q9Y5Z0)
# T1 construct: pET-11 vector-derived residues 1-14 of promemapsin 1-T1 (N, cleaved yes); made in house; host or cells: E. coli
# T1 sequence (Q9Y5Z0 63-466 limits assumed): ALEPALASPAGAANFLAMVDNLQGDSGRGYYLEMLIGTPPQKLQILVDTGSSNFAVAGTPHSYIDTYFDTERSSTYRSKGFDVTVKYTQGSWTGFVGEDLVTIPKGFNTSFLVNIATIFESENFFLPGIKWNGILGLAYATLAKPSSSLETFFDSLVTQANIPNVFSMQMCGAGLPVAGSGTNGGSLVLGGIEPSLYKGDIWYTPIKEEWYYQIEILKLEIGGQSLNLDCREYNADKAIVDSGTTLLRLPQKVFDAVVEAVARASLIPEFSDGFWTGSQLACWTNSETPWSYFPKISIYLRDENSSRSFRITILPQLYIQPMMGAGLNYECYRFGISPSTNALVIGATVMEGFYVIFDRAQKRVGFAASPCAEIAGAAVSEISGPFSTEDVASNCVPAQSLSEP
# procedure.text: Inhibition of memapsin 1 proteolytic activity, fluorogenic substrate FS-2
# Format: biochemical
# experimental.context: Table 9; read-out: Ki apparent Mep1
pKi: −log10 of the molar value.
recorded.endpoint: pKi

CSCC[C@H](NC(=O)[C@@H](NC(=O)OC(C)(C)C)C(C)C)C(=O)N[C@@H](CC(C)C)[C@@H](O)C[C@@H](C)C(=O)N[C@H](C(=O)NCc1ccccc1)C(C)C [MMI-017]
8.92

1: CSCC[C@H](NC(=O)C(Cn1nc(C)cc1C)C(C)C)C(=O)N[C@@H](CC(C)C)[C@@H](O)C[C@@H](C)C(=O)N[C@H](C(=O)NCC(C)C)C(C)C (stereo partly shown) [MMI-204]
2: CSCC[C@H](NC(=O)C(C)Cn1nc(C)cc1C)C(=O)N[C@@H](CC(C)C)[C@@H](O)C[C@@H](C)C(=O)N[C@H](C(=O)NCC(C)C)C(C)C (stereo partly shown) [MMI-196]
3: CC(C)C[C@H](NC(=O)[C@H](CS(C)(=O)=O)NC(=O)[C@@H](NC(=O)OC(C)(C)C)C(C)C)[C@@H](O)C[C@@H](C)C(=O)N[C@H](C(=O)NCc1ccccc1)C(C)C [MMI-026]
Your job: order these 3 records by pKi, ascending. Labels, ranked as asked.
1, 2, 3
(1: 5.99, 2: 6.45, 3: 7.35)
